meta.source: ChEMBL document CHEMBL5291721

Hi! I'm sharing some AC50 results obtained with Sodium-dependent dopamine transporter (Homo sapiens, UniProt Q01959).
Sequence (Q01959 whole entry): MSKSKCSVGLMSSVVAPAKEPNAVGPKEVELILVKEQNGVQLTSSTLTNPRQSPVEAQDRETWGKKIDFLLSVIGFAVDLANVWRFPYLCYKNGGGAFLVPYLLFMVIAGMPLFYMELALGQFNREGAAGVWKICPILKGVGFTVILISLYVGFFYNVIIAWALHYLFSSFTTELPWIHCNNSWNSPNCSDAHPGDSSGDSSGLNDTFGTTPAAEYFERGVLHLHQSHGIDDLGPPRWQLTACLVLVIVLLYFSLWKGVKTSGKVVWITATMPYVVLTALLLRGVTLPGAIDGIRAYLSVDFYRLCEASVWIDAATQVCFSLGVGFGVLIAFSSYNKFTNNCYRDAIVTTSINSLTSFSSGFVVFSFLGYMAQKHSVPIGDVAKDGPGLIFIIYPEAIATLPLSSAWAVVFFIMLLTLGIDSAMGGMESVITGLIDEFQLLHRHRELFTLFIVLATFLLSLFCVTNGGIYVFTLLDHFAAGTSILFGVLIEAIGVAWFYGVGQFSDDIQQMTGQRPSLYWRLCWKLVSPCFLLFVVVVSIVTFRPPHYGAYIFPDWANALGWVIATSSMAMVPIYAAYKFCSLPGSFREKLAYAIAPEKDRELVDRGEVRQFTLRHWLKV

>  <compound>
CCOc1cc(N)c([N+](=O)[O-])cc1C(=O)NC1CCN(CC2CC=CCC2)CC1 (stereo not drawn) [CINITAPRIDE]

>  <AC50>
20 µM

$$$$
>  <compound>
C#CC1(OC(N)=O)CCCCC1 [ETHINAMATE]

>  <AC50>
> 10 µM

$$$$
>  <compound>
CN[C@@H]1[C@H](O)[C@H](NC)[C@H]2O[C@@]3(O)C(=O)C[C@@H](C)O[C@H]3O[C@@H]2[C@H]1O [SPECTINOMYCIN]

>  <AC50>
> 10 µM

$$$$
>  <compound>
[H]/N=C(/N)c1ccc(NCc2nc3cc(C(=O)N(CCC(=O)O)c4ccccn4)ccc3n2C)cc1 [DABIGATRAN]

>  <AC50>
> 30 µM

$$$$
>  <compound>
CC/C=C\C/C=C\C/C=C\CCCCCCCC(=O)O [LINOLENIC ACID]

>  <AC50>
> 30 µM

$$$$
>  <compound>
Cc1c(Cl)cccc1Nc1ccccc1C(=O)O [TOLFENAMIC ACID]

>  <AC50>
> 30 µM

$$$$
>  <compound>
COc1c(N2CCNC(C)C2)c(F)cc2c(=O)c(C(=O)O)cn(C3CC3)c12 (stereo not drawn) [GATIFLOXACIN]

>  <AC50>
> 10 µM

$$$$
>  <compound>
CCCC(CCC)C(=O)O[C@H]1C[C@H]2CC[C@@H](C1)[N+]2(C)C [ANISOTROPINE]

>  <AC50>
> 30 µM

$$$$
>  <compound>
OCCN1CCN(CCCN2c3ccccc3C=Cc3ccccc32)CC1 [OPIPRAMOL]

>  <AC50>
> 30 µM

$$$$
>  <compound>
CNC(=O)c1cc(Oc2ccc(NC(=O)Nc3ccc(Cl)c(C(F)(F)F)c3)cc2)ccn1 [SORAFENIB]

>  <AC50>
6.85 µM

$$$$
>  <compound>
Cc1nc2ccc(CN(C)c3ccc(C(=O)N[C@@H](CCC(=O)O)C(=O)O)s3)cc2c(=O)[nH]1 [RALTITREXED]

>  <AC50>
> 30 µM

$$$$
>  <compound>
O=C(Cn1ccnc1[N+](=O)[O-])NCc1ccccc1 [BENZNIDAZOLE]

>  <AC50>
> 30 µM

$$$$
>  <compound>
CC(C)NCC(O)COc1ccc(COCCOC(C)C)cc1 (stereo not drawn) [BISOPROLOL]

>  <AC50>
> 10 µM

$$$$
>  <compound>
CCCCCOC(=O)Nc1nc(=O)n([C@@H]2O[C@H](C)[C@@H](O)[C@H]2O)cc1F [CAPECITABINE]

>  <AC50>
> 30 µM

$$$$
>  <compound>
CC(C)(N)Cc1ccc(Cl)cc1 [CHLORPHENTERMINE]

>  <AC50>
7.59 µM

$$$$
>  <compound>
O=C(OCCN1CCOCC1)c1cccnc1Nc1cccc(C(F)(F)F)c1 [MORNIFLUMATE]

>  <AC50>
12 µM

$$$$
>  <compound>
O=C(CCCCC(=O)Nc1c(I)cc(I)c(C(=O)O)c1I)Nc1c(I)cc(I)c(C(=O)O)c1I [IODIPAMIDE]

>  <AC50>
> 10 µM

$$$$
>  <compound>
COC(=O)C1=C(C)NC(C)=C(C(=O)OC)C1c1ccccc1[N+](=O)[O-] [NIFEDIPINE]

>  <AC50>
> 10 µM

$$$$
